Experiment: in vivo
Details: mouse, po
One threshold, 1000 mg/kg, splits the recorded LD50 values: lower ones are t, equal or higher ones are f.

[[record]]
compound = "Cc1cc2nc(N)nc(N)n2n1"
assigned_class = "t"

[[record]]
compound = "CCc1nn2c(N)nc(N)nc2c1C"
assigned_class = "t"

[[record]]
compound = "CNc1nc(NC)n2nc(C)cc2n1"
assigned_class = "t"

[[record]]
compound = "Nc1nc(N)n2nccc2n1 [Example 1, 2,4-Diamino-pyrazolo[1,5-a]s.triazine]"
assigned_class = "f"

[[record]]
compound = "C=CCNc1nc(N)nc2cc(C)nn12"
assigned_class = "f"

